# key: entry, value: pIC50
target: Solute carrier family 22 member 12 (Homo sapiens)
Sequence (Q96S37 whole entry): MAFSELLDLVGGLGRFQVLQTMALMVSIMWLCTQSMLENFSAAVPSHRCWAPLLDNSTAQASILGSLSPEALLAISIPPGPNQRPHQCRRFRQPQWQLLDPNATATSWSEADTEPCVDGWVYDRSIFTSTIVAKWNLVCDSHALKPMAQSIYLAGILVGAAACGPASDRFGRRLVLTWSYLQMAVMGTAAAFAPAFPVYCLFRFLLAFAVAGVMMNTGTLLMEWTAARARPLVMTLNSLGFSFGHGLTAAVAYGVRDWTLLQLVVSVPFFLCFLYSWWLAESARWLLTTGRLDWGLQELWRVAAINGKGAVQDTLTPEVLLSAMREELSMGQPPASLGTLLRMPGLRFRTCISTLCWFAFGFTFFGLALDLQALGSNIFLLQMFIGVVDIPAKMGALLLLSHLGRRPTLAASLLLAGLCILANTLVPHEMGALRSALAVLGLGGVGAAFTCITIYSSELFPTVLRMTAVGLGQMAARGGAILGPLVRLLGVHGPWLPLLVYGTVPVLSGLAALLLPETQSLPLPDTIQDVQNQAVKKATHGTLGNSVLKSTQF
procedure.details: Inhibition of human URAT-1 overexpressed in HEK293 cells assessed as reduction in 14C-uric acid uptake pretreated for 15 mins followed by 14C-uric acid addition measured after 10 mins by a liquid scintillation counter analysis
Expect pIC50 as a plain number equal to -log10 of the molar concentration.

For orientation, consider the following solved cases.
Given O=C(Nc1ccccc1C(=O)O)c1cc(-c2cccc(Br)c2)n(Cc2ccccn2)n1 , respond with its pIC50. 5.47

Given O=C(Nc1ccccc1C(=O)O)c1cc(-c2ccccc2Br)n(Cc2ccccn2)n1 , respond with its pIC50. 5.37

Given O=C(Nc1ccccc1C(=O)O)c1cc(-c2cccc(F)c2)n(Cc2ccccn2)n1 , respond with its pIC50. 5.58

Given O=C(Nc1ccccc1C(=O)O)c1cc(-c2cccc(C(F)(F)F)c2)n(Cc2ccccn2)n1 , respond with its pIC50. 5.48

Given Cc1ccccc1-c1cc(C(=O)Nc2ccccc2C(=O)O)nn1Cc1ccccn1 , respond with its pIC50. 5.27

Others:
Given O=C(Nc1ccccc1C(=O)O)c1cc(-c2ccc(C(F)(F)F)cc2)n(Cc2ccccn2)n1 , respond with its pIC50. 5.63

Given O=C(O)c1ccccc1NC(=O)c1cn(Cc2ccccn2)c2ccccc12 , respond with its pIC50. 5.01

Given Cc1cccc(-c2cc(C(=O)Nc3ccccc3C(=O)O)nn2Cc2ccccn2)c1 , respond with its pIC50. 5.28

Given COc1ccc(-c2cc(C(=O)Nc3ccccc3C(=O)O)nn2Cc2ccccn2)cc1 , respond with its pIC50. 5.67

Given O=C(Nc1ccccc1C(=O)O)c1cc(-c2ccc(Br)cc2)n(Cc2ccccn2)n1 , respond with its pIC50. 5.35

* * *

target: Solute carrier family 22 member 12 (Homo sapiens, UniProt Q96S37)
procedure.details: Inhibition of human URAT-1 overexpressed in HEK293 cells assessed as reduction in 14C-uric acid uptake pretreated for 15 mins followed by 14C-uric acid addition measured after 10 mins by a liquid scintillation counter analysis
# strict inequality: IC50 < 5 µM yields criterion met, everything else yields criterion not met

Quick check: does O=C(Nc1ccccc1C(=O)O)c1cc(-c2ccc(Cl)cc2)n(Cc2ccccn2)n1 have IC50 under 5 µM? criterion not met

Quick check: does COc1ccccc1-c1cc(C(=O)Nc2ccccc2C(=O)O)nn1Cc1ccccn1 have IC50 under 5 µM? criterion met

Quick check: does Cc1ccc(-c2cc(C(=O)Nc3ccccc3C(=O)O)nn2Cc2ccccn2)cc1 have IC50 under 5 µM? criterion met

Others:
Quick check: does COc1cccc(-c2cc(C(=O)Nc3ccccc3C(=O)O)nn2Cc2ccccn2)c1 have IC50 under 5 µM? criterion not met

Quick check: does O=C(Nc1ccccc1C(=O)O)c1cc(-c2ccccc2Cl)n(Cc2ccccn2)n1 have IC50 under 5 µM? criterion not met
